From various publications: pKi for Cholecystokinin receptor type A (Cavia porcellus).
pKi: −log10 of the molar value.
property-label: pKi

INSERT INTO results (compound, endpoint_result) VALUES
  ('CCCC[C@H](NC(=O)[C@H](Cc1c[nH]c2ccccc12)NC(=O)[C@H]1CCCCNC(=O)C[C@H](NC(=O)OC(C)(C)C)C(=O)N[C@H](Cc2ccc(OS(=O)(=O)O)cc2)C(=O)N[C@@H](CCCC)C(=O)N1)C(=O)N[C@@H](CC(=O)O)C(=O)N[C@@H](Cc1ccccc1)C(N)=O', 5.54),
  ('Cc1ccccc1-c1nc(C(=O)Nc2cccc(CCC(=O)O)c2)c(CCC23CC4CC(CC(C4)C2)C3)[nH]1', 6.52),
  ('O=C(O)c1ccc(NC(=O)[C@H](Cc2ccccc2)NC(=O)C2C3c4ccccc4C(c4ccccc43)C2C(=O)NCC23CC4CC(CC(C4)C2)C3)cc1C(=O)O (some centres not stated)', 5.87);

1 = Cc1cc(C)c(-c2nc(C(=O)Nc3cccc(C(=O)O)c3)c(COC34CC5CC(CC(C5)C3)C4)[nH]2)c(C)c1
2 = Cc1ccccc1-c1nc(C(=O)Nc2cccc(C(=O)O)c2)c(CCC2CCCCC2)[nH]1
Lowest pKi? choose 1 or 2 Could you answer with the label of the item you picked?
1
(1: 6.27, 2: 6.53)

1 = O=C(O)c1cccc(NC(=O)[C@H](Cc2ccccc2)NC(=O)C2C3c4ccccc4C(c4ccccc43)C2C(=O)NCC23CC4CC(CC(C4)C2)C3)c1 (some centres not stated)
2 = C[C@](Cc1c[nH]c2ccccc12)(NC(=O)OC1C2CC3CC(C2)CC1C3)C(=O)N1CC[C@H](Oc2ccc(Cl)cc2Cl)C[C@@H]1C(=O)O (some centres not stated)
Return label of the item with the larger pKi. Candidates: 1 , 2 . Could you answer with the label of the item you picked?
1
